# SYSTEM UNDER TEST: His-Avi-TEV-mSTING (138-341) mouse wild-type protein (Mus musculus, UniProt Q3TBT3)
# Construct: made in house; host or cells: E. coli Rosetta 2 (DE3), co-expressed with BirA (1-321)
# Sequence (Q3TBT3 with tags, fused parts or gaps limits assumed): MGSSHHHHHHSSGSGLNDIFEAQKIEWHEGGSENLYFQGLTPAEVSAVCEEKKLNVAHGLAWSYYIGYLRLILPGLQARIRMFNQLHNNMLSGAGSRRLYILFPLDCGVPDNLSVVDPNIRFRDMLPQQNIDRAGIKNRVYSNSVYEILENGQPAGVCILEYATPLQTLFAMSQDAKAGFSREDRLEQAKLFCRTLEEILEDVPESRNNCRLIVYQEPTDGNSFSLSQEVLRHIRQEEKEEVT
# PROCEDURE DETAILS: Protein thermal shift assay, STING C-terminal binding domain protein
# CONDITION SUMMARY: test compound final concentration 0.5 mM
ASSAY METRIC: ΔTm at 500 µM (°C)
The answer is to be given in °C; state only the numeric part.

Inquiry: Report measured ΔTm at 500 µM; entry is NCCNc1nc(N)c2ncn([C@@H]3O[C@@H]4COP(=O)(S)O[C@H]5[C@@H](O)[C@H](n6cc7c8c(ncnc86)NCCC7)O[C@@H]5COP(=O)(S)O[C@@H]3[C@@H]4F)c2n1 (single isomer, unassigned) [42a]
Reply text: 11.2

Inquiry: Tell me ΔTm at 500 µM reported for O=P1(S)OC[C@H]2O[C@@H](n3cc4c5c(ncnc53)NCCC4)[C@H](O)[C@@H]2OP(=O)(S)OC[C@H]2O[C@@H](n3cnc4c(CO)ncnc43)[C@H](O1)[C@@H]2O (single isomer, unassigned) [17a]
Reply text: 12.6

Inquiry: Provide only the value of recorded ΔTm at 500 µM for NCCNc1nc(N)c2ncn([C@@H]3O[C@@H]4COP(=O)(S)O[C@H]5[C@@H](F)[C@H](n6cc7c8c(ncnc86)NCCC7)O[C@@H]5COP(=O)(S)O[C@@H]3[C@@H]4O)c2n1 (single isomer, unassigned) [37a]
Reply text: 15.3

Inquiry: Provide one value: measured ΔTm at 500 µM of O=C(CO)NCCn1cnc2c(ncn2[C@@H]2O[C@@H]3COP(=O)(S)O[C@H]4[C@@H](F)[C@H](n5cc6c7c(ncnc75)SCCC6)O[C@@H]4COP(=O)(S)O[C@@H]2[C@@H]3O)c1=O (single isomer, unassigned) [50a]
Reply text: 13

Inquiry: Output ΔTm at 500 µM of Nc1ncnc2c1ncn2[C@@H]1O[C@@H]2COP(=O)(S)O[C@H]3[C@@H](O)[C@H](n4cc5c6c(ncnc64)SCCC5)O[C@@H]3COP(=O)(S)O[C@@H]1[C@@H]2O (single isomer, unassigned) [23a]
Reply text: 15.6

Inquiry: Identify the reported ΔTm at 500 µM for the following entry. `O=c1c2ncn([C@@H]3O[C@@H]4COP(=O)(O)O[C@H]5[C@@H](F)[C@H](n6cc7c8c(ncnc86)NCCC7)O[C@@H]5COP(=O)(O)O[C@@H]3[C@@H]4O)c2ncn1CCO`
Reply text: 12.1

Inquiry: Indicate its recorded ΔTm at 500 µM; the compound in question is O=C(CO)NCCn1cnc2c(ncn2[C@@H]2O[C@@H]3COP(=O)(S)O[C@H]4[C@@H](O)[C@H](n5cc6c7c(ncnc75)NCCC6)O[C@@H]4COP(=O)(S)O[C@@H]2[C@@H]3O)c1=O (single isomer, unassigned)
Reply text: 11.5

Inquiry: Write down ΔTm at 500 µM measured for item O=c1c2ncn([C@@H]3O[C@@H]4COP(=O)(S)O[C@H]5[C@@H](O)[C@H](n6cc7c8c(ncnc86)NCCC7)O[C@@H]5COP(=O)(S)O[C@@H]3[C@@H]4F)c2ncn1CCO (single isomer, unassigned) [39a]
Reply text: 15

Inquiry: Indicate its recorded ΔTm at 500 µM; the compound in question is Nc1ncnc2c1ncn2[C@@H]1O[C@@H]2COP(=O)(S)O[C@H]3[C@@H](O)[C@H](n4cc5c6c(ncnc64)NCCC5)O[C@@H]3COP(=O)(S)O[C@@H]1[C@@H]2O (single isomer, unassigned)
Reply text: 14.3
